# Test system: Wolbachia pipientis
# ASSAY_EXPLANATION: Anti-Wolbachia Cell-Based Screen
# Assay type: functional
# Parameters: scale not given: in the data most compounds retested in dose-response had high values
# STATED_CONDITIONS: 5 µM
Screen size: about 48,000 compounds; about 13,000 (27%) showed an effect of 50% or more. This is one part of the list.
Each entry below lists one item and its recorded Percent Effect value.
Write the number in % without appending the unit.

These recorded examples may help you get a feel for the data.
Cc1cc(S(=O)(=O)N2CCc3ccc(F)cc32)cc(C(=O)O)c1C    -1.898
Cn1cc(NC(=O)c2ccccn2)cc(Cl)c1=O    -1.878
Clc1ccccc1OC1CCN(CC2CCOC2)CC1 (configuration not stated)    -1.584
COc1ccc(C(=O)Nc2c(C)nn(C(C)C)c2C)cc1    14.16
COc1cccc(C(=O)Nc2ccc(OC3CCN(C)CC3)cc2)c1    16.42

Send back Wolbachia pipientis Percent Effect of O=C(NCCCC(=O)N1Cc2ccccc2C1)NCc1cccnc1 only.
2.963

====

# System: Wolbachia pipientis
# ASSAY_EXPLANATION: Anti-Wolbachia Cell-Based Screen
# Type: functional
# Design: scale not given: in the data most compounds retested in dose-response had high values
# STATED_CONDITIONS: 5 µM
Among all 48,000 compounds or so, about 13,000 (27%) showed an effect of 50% or more. The list shows a part of the results.
ENDPOINT_NAME: Percent Effect (%)
Write the number in % without appending the unit.

These recorded examples may help you get a feel for the data.
O=C(NCc1cnc2n1CCN(CC1CC1)CC2)C1CCC1    16.9
CNC(=O)Cc1noc(-c2cc3c(s2)CCC(C)C3)n1 (stereo not drawn)    -12.44
CCCc1nc(C)c(C(=O)NCCn2ccnc2)s1    -2.524

For the compound Cn1cccc1C(=O)NCc1cnc2n1CCN(C(=O)N1CCCC1)C2 , give its reported Percent Effect.
10.49

For the compound CN1CCCC(c2cccc(Cc3ccccc3Cl)n2)C1 (stereo not drawn) , give its reported Percent Effect.
-5.601

For the compound CC(=O)N1CCc2ncc(CNC(=O)C3CCC3)n2CC1 , give its reported Percent Effect.
106.1

====

# Test system: Wolbachia pipientis
# ASSAY_EXPLANATION: Anti-Wolbachia Cell-Based Screen
# Format: functional
# Design: scale not given: in the data most compounds retested in dose-response had high values
# STATED_CONDITIONS: 5 µM
About 13,000 (27%) of roughly 48,000 compounds showed an effect of 50% or more. The list shows a part of the results.
ENDPOINT_NAME: Percent Effect (%)
Write the number in % without appending the unit.

These recorded examples may help you get a feel for the data.
O=C(CN1C=Nc2ccccc2S1(=O)=O)NCCc1cccs1    3.571
Nc1nc2c(c(NCc3nc(-c4ccncc4)n[nH]3)n1)CCCC2    -1.758
CC(OCC(F)(F)F)C(=O)Nc1ccc(-n2cncn2)nc1 (stereo unspecified)    -8.836
CO[C@H]1COCCN(C(=O)c2ccc(C(F)(F)F)cc2)C1    -0.5949
Cc1cc(NC(=O)CN2CCOC(Cn3cccn3)C2)n(C)n1 (stereo unspecified)    -0.9893

In the following, a different compound is considered.
For the compound Nc1nc2c(c(NCc3ccncc3)n1)CCCC2 , give its reported Percent Effect.
-16.82

Ref: ChEMBL document CHEMBL3988442
